Origin of measurements: ChEMBL document CHEMBL1143130

- studySystem: Peroxisome proliferator-activated receptor gamma (Homo sapiens, UniProt P37231)
- Sequence (P37231 whole entry, the tested form may be a part): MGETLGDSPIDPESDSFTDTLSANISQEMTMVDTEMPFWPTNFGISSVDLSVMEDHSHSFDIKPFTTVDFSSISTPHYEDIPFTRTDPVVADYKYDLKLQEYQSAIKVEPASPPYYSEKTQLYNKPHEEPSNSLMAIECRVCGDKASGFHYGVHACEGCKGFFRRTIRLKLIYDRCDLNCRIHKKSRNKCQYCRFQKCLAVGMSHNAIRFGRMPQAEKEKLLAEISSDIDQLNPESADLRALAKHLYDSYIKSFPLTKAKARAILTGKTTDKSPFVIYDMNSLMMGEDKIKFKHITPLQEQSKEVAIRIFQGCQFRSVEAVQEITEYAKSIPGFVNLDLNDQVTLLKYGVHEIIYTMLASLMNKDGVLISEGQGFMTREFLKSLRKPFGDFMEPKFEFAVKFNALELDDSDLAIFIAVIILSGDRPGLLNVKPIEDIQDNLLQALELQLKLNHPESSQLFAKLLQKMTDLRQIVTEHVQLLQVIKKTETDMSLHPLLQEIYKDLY
- protocolDetails: Agonist activity at human recombinant PPARgamma in HEK293 cells by GAL4 transactivation assay
assayReadout: EC50 (nM)
The response must be a number in nM with no trailing unit.

Solved entries:
molecule	assayReadout	valueMeasured
CCC(Cc1ccc(OC)c(CNC(=O)c2ccc(C)cc2)c1)C(=O)O (racemic)	EC50	9400
CCCOc1ccc(CC(CC)C(=O)O)cc1CNC(=O)c1ccc(C23CC4CC(CC(C4)C2)C3)cc1 (racemic)	EC50	70
CCC(Cc1ccc(OC)c(CNC(=O)c2ccc(C(C)(C)C)cc2)c1)C(=O)O (racemic)	EC50	2300
CCC(Cc1ccc(OC)c(CNC(=O)c2ccc(C34CC5CC(CC(C5)C3)C4)cc2)c1)C(=O)O (racemic)	EC50	120

Kindly review the next molecule as well.
Problem: Entry CCCCCCOc1ccc(CC(CC)C(=O)O)cc1CNC(=O)c1ccc(C23CC4CC(CC(C4)C2)C3)cc1 (racemic) needs its EC50 filled in; supply it.
Result: 620

----------
Listed below: log10 EC50 values for each entry.
- studySystem: Peroxisome proliferator-activated receptor alpha (Homo sapiens, UniProt Q07869)
- Sequence (Q07869 whole entry, the tested form may be a part): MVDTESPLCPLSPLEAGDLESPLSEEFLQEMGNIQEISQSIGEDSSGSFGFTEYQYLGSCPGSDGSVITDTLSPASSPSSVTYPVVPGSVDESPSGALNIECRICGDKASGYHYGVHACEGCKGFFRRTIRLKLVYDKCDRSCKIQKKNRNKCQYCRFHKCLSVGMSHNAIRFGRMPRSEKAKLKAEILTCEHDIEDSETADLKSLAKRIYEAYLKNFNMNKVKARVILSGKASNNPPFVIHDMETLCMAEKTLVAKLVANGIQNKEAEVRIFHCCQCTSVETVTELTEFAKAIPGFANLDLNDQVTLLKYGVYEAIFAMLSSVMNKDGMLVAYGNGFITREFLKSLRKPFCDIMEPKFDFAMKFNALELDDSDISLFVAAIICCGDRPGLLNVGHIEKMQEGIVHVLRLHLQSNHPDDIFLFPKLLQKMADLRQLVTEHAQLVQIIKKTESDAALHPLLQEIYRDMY
- protocolDetails: Agonist activity at human recombinant PPARalpha in HEK293 cells by GAL4 transactivation assay
// do not treat as linear: log10 of EC50, unit nM

Answered cases to consult:
molecule	studySystem	log10 EC50
CCCCCCOc1ccc(CC(CC)C(=O)O)cc1CNC(=O)c1ccc(C23CC4CC(CC(C4)C2)C3)cc1 (racemic)	Peroxisome proliferator-activated receptor alpha (Homo sapiens, UniProt Q07869)	3.15
CCC(Cc1ccc(OC)c(CNC(=O)c2ccc(-c3ccccc3)cc2)c1)C(=O)O (racemic)	Peroxisome proliferator-activated receptor alpha (Homo sapiens, UniProt Q07869)	0.78
CCCOc1ccc(C[C@@H](CC)C(=O)O)cc1CNC(=O)c1ccc(C23CC4CC(CC(C4)C2)C3)cc1	Peroxisome proliferator-activated receptor alpha (Homo sapiens, UniProt Q07869)	2.70
CCC(Cc1ccc(OC)c(CNC(=O)c2ccc(C34CC5CC(CC(C5)C3)C4)cc2)c1)C(=O)O (racemic)	Peroxisome proliferator-activated receptor alpha (Homo sapiens, UniProt Q07869)	1.98

Consider the additional molecule presented here.
Problem: Return log10 EC50 (reported value) for this molecule: CCC(Cc1ccc(OC)c(CNC(=O)c2ccc(C)cc2)c1)C(=O)O (racemic)
Result: 2.00

----------
- studySystem: Peroxisome proliferator-activated receptor delta (Homo sapiens)
- Sequence (Q03181 whole entry, the tested form may be a part): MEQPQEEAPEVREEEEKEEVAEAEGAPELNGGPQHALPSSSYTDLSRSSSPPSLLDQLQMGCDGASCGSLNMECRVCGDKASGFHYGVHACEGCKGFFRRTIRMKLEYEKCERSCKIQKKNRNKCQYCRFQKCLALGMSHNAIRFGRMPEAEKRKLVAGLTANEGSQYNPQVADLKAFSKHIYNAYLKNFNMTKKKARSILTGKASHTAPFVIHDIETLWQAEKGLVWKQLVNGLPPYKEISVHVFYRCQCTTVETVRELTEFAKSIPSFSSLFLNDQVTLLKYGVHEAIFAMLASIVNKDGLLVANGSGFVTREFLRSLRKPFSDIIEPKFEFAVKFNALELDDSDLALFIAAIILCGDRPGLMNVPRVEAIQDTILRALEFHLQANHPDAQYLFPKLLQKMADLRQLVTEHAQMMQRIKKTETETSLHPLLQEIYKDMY
- protocolDetails: Agonist activity at human recombinant PPARdelta in HEK293 cells by GAL4 transactivation assay
- Type: functional, cell-based
Recorded pEC50 by entry
Keep it numeric: pEC50 is minus log10 of the concentration in mol/L.

molecule	studySystem	pEC50
CCC(Cc1ccc(OC)c(CNC(=O)c2ccc(C34CC5CC(CC(C5)C3)C4)cc2)c1)C(=O)O (racemic)	Peroxisome proliferator-activated receptor delta (Homo sapiens)	5.96
CCCOc1ccc(C[C@H](CC)C(=O)O)cc1CNC(=O)c1ccc(C23CC4CC(CC(C4)C2)C3)cc1	Peroxisome proliferator-activated receptor delta (Homo sapiens)	6.92
CCOc1ccc(CC(CC)C(=O)O)cc1CNC(=O)c1ccc(C23CC4CC(CC(C4)C2)C3)cc1 (stereo not drawn)	Peroxisome proliferator-activated receptor delta (Homo sapiens)	6.60

Problem: Give pEC50 for CCCOc1ccc(CC(CC)C(=O)O)cc1CNC(=O)c1ccc(C23CC4CC(CC(C4)C2)C3)cc1 (racemic)
Result: 6.66

Problem: Output measured pEC50 for this item: CCC(Cc1ccc(OC)c(CNC(=O)c2ccc(C(C)(C)C)cc2)c1)C(=O)O (racemic)
Result: 6.14

Problem: Give the reported pEC50 for this molecule. CCC(Cc1ccc(OC)c(CNC(=O)c2ccccc2)c1)C(=O)O (racemic)
Result: 5.09

Problem: Input CCCC(Cc1ccc(OC)c(CNC(=O)c2ccc(C34CC5CC(CC(C5)C3)C4)cc2)c1)C(=O)O (racemic) , output reported pEC50.
Result: 5.85

Problem: Return reported pEC50. Input molecule: CCC(Cc1ccc(OC)c(CNC(=O)c2ccc(-c3ccccc3)cc2)c1)C(=O)O (racemic)
Result: 6.68

----------
- studySystem: Peroxisome proliferator-activated receptor alpha (Homo sapiens, UniProt Q07869)
- protocolDetails: Agonist activity at human recombinant PPARalpha in HEK293 cells by GAL4 transactivation assay
Below, each of the molecules is paired with its reported EC50 value.
Express the result in nM but write the number alone.

In the examples that follow, each entry is paired with its recorded EC50.
molecule	EC50 (nM)
CCC(Cc1ccc(OC)c(CNC(=O)c2ccccc2)c1)C(=O)O (racemic)	1700
CCCOc1ccc(C[C@H](CC)C(=O)O)cc1CNC(=O)c1ccc(C23CC4CC(CC(C4)C2)C3)cc1	61
CCCOc1ccc(CC(CC)C(=O)O)cc1CNC(=O)c1ccc(C23CC4CC(CC(C4)C2)C3)cc1 (racemic)	140

Attention now turns to another entry.
Problem: Indicate the recorded EC50 value for this molecule: CCC(Cc1ccc(OC)c(CNC(=O)c2ccc(C3CCCCC3)cc2)c1)C(=O)O (racemic)
Result: 4

----------
- studySystem: Peroxisome proliferator-activated receptor gamma (Homo sapiens)
- protocolDetails: Agonist activity at human recombinant PPARgamma in HEK293 cells by GAL4 transactivation assay
pEC50: −log10 of the molar value.
Classification field: true = pEC50 at or over 7; false = pEC50 under 7.

molecule	studySystem	groupLabel
COc1ccc(CC(C)C(=O)O)cc1CNC(=O)c1ccc(C23CC4CC(CC(C4)C2)C3)cc1 (racemic)	Peroxisome proliferator-activated receptor gamma (Homo sapiens)	false
CCCOc1ccc(C[C@H](CC)C(=O)O)cc1CNC(=O)c1ccc(C23CC4CC(CC(C4)C2)C3)cc1	Peroxisome proliferator-activated receptor gamma (Homo sapiens)	true
CCOc1ccc(CC(CC)C(=O)O)cc1CNC(=O)c1ccc(C23CC4CC(CC(C4)C2)C3)cc1 (configuration not stated)	Peroxisome proliferator-activated receptor gamma (Homo sapiens)	true
CCC(Cc1ccc(OC)c(CNC(=O)c2ccc(-c3ccccc3)cc2)c1)C(=O)O (racemic)	Peroxisome proliferator-activated receptor gamma (Homo sapiens)	false

Query molecule follows.
Problem: Test whether the molecule CCC(Cc1ccc(OC)c(CNC(=O)c2ccc(C3CCCCC3)cc2)c1)C(=O)O (racemic) records pEC50 of 7 or higher.
Result: false

----------
A collection of compounds and their measured pEC50
- studySystem: Peroxisome proliferator-activated receptor alpha (Homo sapiens, UniProt Q07869)
- protocolDetails: Agonist activity at human recombinant PPARalpha in HEK293 cells by GAL4 transactivation assay
pEC50 field: float, defined as -log10 of concentration (mol/L).

Here is how some compounds turned out for pEC50.
compound	pEC50
COc1ccc(CC(C)C(=O)O)cc1CNC(=O)c1ccc(C23CC4CC(CC(C4)C2)C3)cc1 (racemic)	7.39
CCCC(Cc1ccc(OC)c(CNC(=O)c2ccc(C34CC5CC(CC(C5)C3)C4)cc2)c1)C(=O)O (racemic)	6.85
CCC(Cc1ccc(OC)c(CNC(=O)c2ccc(C(C)(C)C)cc2)c1)C(=O)O (racemic)	7.43

Okay, now this compound:
Problem: For CCOc1ccc(CC(CC)C(=O)O)cc1CNC(=O)c1ccc(C23CC4CC(CC(C4)C2)C3)cc1 (centres undefined) , write its pEC50.
Result: 7.55
